test.target: isomerase (Mus musculus)
Construct: from tissue; host or cells: eye of living mice (CD-1; Balb/c also mentioned)
Sequence (Q91ZQ5 whole entry): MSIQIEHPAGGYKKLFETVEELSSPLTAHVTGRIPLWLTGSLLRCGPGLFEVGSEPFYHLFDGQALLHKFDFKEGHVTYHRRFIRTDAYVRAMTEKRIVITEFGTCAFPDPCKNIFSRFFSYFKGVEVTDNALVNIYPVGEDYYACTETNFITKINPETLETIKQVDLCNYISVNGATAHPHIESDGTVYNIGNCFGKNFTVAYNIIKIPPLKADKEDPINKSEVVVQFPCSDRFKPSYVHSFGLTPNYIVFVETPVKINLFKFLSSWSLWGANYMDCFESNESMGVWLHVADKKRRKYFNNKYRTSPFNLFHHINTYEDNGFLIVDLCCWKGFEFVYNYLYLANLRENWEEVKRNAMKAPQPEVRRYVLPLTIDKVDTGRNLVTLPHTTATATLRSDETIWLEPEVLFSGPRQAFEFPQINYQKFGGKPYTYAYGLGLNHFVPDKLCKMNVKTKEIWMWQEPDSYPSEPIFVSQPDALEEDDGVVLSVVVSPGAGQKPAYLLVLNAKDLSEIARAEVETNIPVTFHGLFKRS
experiment.description: In vivo murine isomerase assay
condition.context: 1.0 mg/kg, oral, mice, 11-cis-retinal (oxime) recovery after photobleaching
Procedure: The capability of sulphur-linked compounds to inhibit isomerase is determined by an in vivo murine isomerase assay. […] About six-week old dark-adapted CD-1 (albino) male mice are orally gavaged with compound (0.01-25 mg/kg) dissolved in an appropriate amount of oil (about 100 μl corn oil containing 10% ethanol, at least five animals per group). […] Retinoids are extracted from the eye and the regeneration of 11-cis-retinal is assessed at various time intervals. […]
assay.endpoint: % Inibition 1.0 mg/kg, 4 h (%)
Quick reminder: number only, in %, skip the unit.

{"compound": "NCC[C@@H](O)c1cccc(SCC2CCCCC2)c1", "% Inibition 1.0 mg/kg, 4 h / %": 33.4}

Param item: NCCC(=O)c1cccc(S(=O)(=O)CC2CCCCC2)c1 ; param system: isomerase (Mus musculus); output % Inibition 1.0 mg/kg, 4 h: 79.3

Param item: [2H]C([2H])(Sc1cccc(C(O)CCN)c1)C1CCCCC1 (stereo not drawn) ; param system: isomerase (Mus musculus); output % Inibition 1.0 mg/kg, 4 h: −8.5

Param item: [2H]C([2H])(N)CC(O)c1cccc(SCC2CCCCC2)c1 (stereo not drawn) ; param system: isomerase (Mus musculus); output % Inibition 1.0 mg/kg, 4 h: 87.1

Param item: NCCCc1cccc(S(=O)(=O)CC2CCCCC2)c1 ; param system: isomerase (Mus musculus); output % Inibition 1.0 mg/kg, 4 h: −12.1

Param item: CCCCSc1cccc([C@H](O)CCN)c1 ; param system: isomerase (Mus musculus); output % Inibition 1.0 mg/kg, 4 h: 68.6
